Values compiled from BigSolDB 2.1.

experimental.conditions: in acetonitrile, 323.15 K
recorded.endpoint: solubility (mole fraction)
# output: bare number, no unit

(Q) For CCOc1ccccc1C(N)=O , what is its reported solubility (mole fraction)?
(A) 0.0377

* * *

experimental.conditions: in methanol, 323.15 K
recorded.endpoint: solubility (mole fraction)
# output: bare number, no unit

(Q) For CCOc1ccccc1C(N)=O , what is its reported solubility (mole fraction)?
(A) 0.0596

* * *

experimental.conditions: in methanol, 318.15 K
recorded.endpoint: solubility (mole fraction)
# output: bare number, no unit

(Q) For CCOc1ccccc1C(N)=O , what is its reported solubility (mole fraction)?
(A) 0.0484
